reported_endpoint: melting point

Worked cases, answers included:
>  <compound>
O=Cc1ccc(-c2cn(CCOC(=O)/C=C/c3ccc(O)c(O)c3)nn2)cc1 [15h]

>  <melting point>
220 to 230 °C (dec.)

$$$$
>  <compound>
O=C(/C=C/c1ccc(O)c(O)c1)OCCn1cc(-c2ccc(F)cc2)nn1 [15g]

>  <melting point>
238 to 240 °C (dec.)

$$$$
>  <compound>
Cc1ccc(-c2cn(CCOC(=O)/C=C/c3ccc(O)c(O)c3)nn2)cc1 [15f]

>  <melting point>
181 to 182 °C (dec.)

$$$$
>  <compound>
CCCc1cn(CCOC(=O)/C=C/c2ccc(O)c(O)c2)nn1 [15b]

>  <melting point>
180 to 181 °C (dec.)

$$$$
>  <compound>
O=Cc1ccc(-c2cn(CCNC(=O)/C=C/c3ccc(O)c(O)c3)nn2)cc1 [16h]

>  <melting point>
228 to 230 °C (dec.)

$$$$

Input O=C(C=Cc1ccccc1)OCCn1cc(-c2ccc(F)cc2)nn1 [8g] . Output melting point: 134 to 135 °C

Input O=C(C=Cc1ccccc1)NCCn1cc(-c2ccc(F)cc2)nn1 [9g] . Output melting point: 193 to 196 °C

Input O=Cc1ccc(-c2cn(CCNC(=O)C=Cc3ccccc3)nn2)cc1 [9h] . Output melting point: 200 to 201 °C

Input O=C(C=Cc1ccccc1)OCCn1ccnn1 [8a, 2-(1H-1,2,3-Triazol-1-yl)ethyl Cinnamate] . Output melting point: 99 to 100 °C

Input O=C(C=Cc1ccccc1)NCCn1cc(-c2ccccc2)nn1 [9e] . Output melting point: 171 to 173 °C

Input CCCc1cn(CCOC(=O)C=Cc2ccccc2)nn1 [8b] . Output melting point: 63 to 64 °C

Input O=C(/C=C/c1ccc(O)c(O)c1)OCCn1cc(C2=CCCCC2)nn1 [15d] . Output melting point: 219 to 220 °C (dec.)

Input O=C(/C=C/c1ccc(O)c(O)c1)NCCn1cc(-c2ccc(F)cc2)nn1 [16g] . Output melting point: 226 °C (dec.)
